The measured values listed here are drawn from patent US20240417484A1.

target_system: T1, human CD73 on cells (CD73-transfected HEK cells; native on PBMCs; OCI-AML3 cells) (human, UniProt P21589 27-549)
T1 construct: also called NT5E; gene ID 4907
T1 sequence: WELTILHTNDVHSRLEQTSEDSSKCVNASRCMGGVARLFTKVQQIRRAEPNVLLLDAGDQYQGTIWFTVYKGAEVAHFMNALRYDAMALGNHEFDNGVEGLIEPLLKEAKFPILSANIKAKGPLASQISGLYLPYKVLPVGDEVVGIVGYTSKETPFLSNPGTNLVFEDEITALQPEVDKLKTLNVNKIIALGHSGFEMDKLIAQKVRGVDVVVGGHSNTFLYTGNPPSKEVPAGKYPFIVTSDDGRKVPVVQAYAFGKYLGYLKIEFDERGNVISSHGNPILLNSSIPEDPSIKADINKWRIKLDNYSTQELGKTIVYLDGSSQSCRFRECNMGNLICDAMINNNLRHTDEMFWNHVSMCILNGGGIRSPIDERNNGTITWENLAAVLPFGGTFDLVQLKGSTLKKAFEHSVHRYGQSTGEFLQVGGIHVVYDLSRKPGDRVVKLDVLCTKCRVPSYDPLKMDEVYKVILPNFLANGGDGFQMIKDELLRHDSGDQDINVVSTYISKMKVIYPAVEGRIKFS
assay_overview: flow cytometry, human CD73-expressing cells; competitor: human IgG hcAb SB121
endpoint_name: percent inhibition of binding (%)
Numbers only, in %.

Past entries and their recorded results:
| binder | percent inhibition of binding, % |
| --- | --- |
| SB143 rabbit IgG hcAb (Fc fusion, not shown: hinge and Fc-domains of rabbit IgG) heavy: QVQLVESGGGLVQAGGSLRLSCAASGRTFSRSTMGWFRQAPGKERVFVAAIRWIGGTTTYGDSVKGRFTISVDNAKNTLYLQMNSLKPEDTAVYYCAATAGGPYYLGGRDILYDYWGQGTQVTVSS | 13 |
| SB116 rabbit IgG hcAb (Fc fusion, also called SB116-rbFc; dimeric SB116 Fc construct; not shown: hinge and Fc-domains of rabbit IgG) heavy: QVKLQESGGGRVQTGGSLRLSCAASGISFSITTMYWYRQAPGEQRQLVALITDRGNTYYVDSVKGRFTISRDDSKNTVYLQMNDLKPEDTAVYFCNSIPGNDWGQGTQVTVSS | 6 |
| SB121 rabbit IgG hcAb (Fc fusion, not shown: hinge and Fc-domains of rabbit IgG) heavy: QVQLQESGGGLVQAGGSLRLSCAASGSIGSIIAMGWYRQGPGKQRELVARMFTDDGSTNYDDSVKGRFTISRDSAGTTVYLQMNSLKPEDTAVYYCNAQRRWNAYWGPGTQVTVSS | 69 |
| SB139 rabbit IgG hcAb (Fc fusion, not shown: hinge and Fc-domains of rabbit IgG) heavy: QVQLQESGGGLVQAGGSLRLSCAASENIFNIYGMGWYRQAPGKLRDLVAKITSGGRTTYADSVKGRFTISGDNAKNTVYLQMNSLKPEDTAVYYCNSYYYWGQGTQVTVSS | 3 |
| SB141 rabbit IgG hcAb (Fc fusion, not shown: hinge and Fc-domains of rabbit IgG) heavy: QVQLVESGGGLVQPGGSLRLSCAASGFTFINYHMSWLRQAPGKGLEWVSEIHSRGDITSYTNSVKGRFTISRDNAKNTLYLQMNSLKFDDTAVYYCARSRDLFNEGEYDYWGRGTQVTVSS | -1 |

Exam item: Input SB96 rabbit IgG hcAb (Fc fusion, VHH fused upstream of hinge and Fc of rabbit IgG; also called Nb-rbIgG hcAb SB96; not shown: hinge and Fc-domains of rabbit IgG) heavy: DVQLQASGGGLVQPGGSLRLSCTASGFTLDYLSIGWFRQVPGKEREGVSCINSSGGSTNYADSLKGRLTISRDNAKNTVYLQMNSLKPEDTAVYYCAAHKYYYCSNKVEVFDYWGQGTPVTVSS , output reported percent inhibition of binding.
Marked response: -29
